targetOrSystem: IDO (Homo sapiens)
protocolNotes: LLE_IDO_ABS_DR (IDO assay)
valueKind: pIC50
Formally, pIC50 is defined as -log10 of the concentration c, with c in mol/L.

Examples with answers:
compound | pIC50
O=C(Nc1ccc(C2CC2)c(F)c1)Nc1cc(-c2ccccc2-c2nnn[nH]2)ccc1N(CCC(F)(F)F)Cc1ccccn1 | 6.92
COCCN(CCOC)c1ccc(-c2ccccc2-c2nnn[nH]2)cc1NC(=O)Nc1ccc(C)cc1 | 6.57
CC(C)CN(CC(C)C)c1ccc(-c2ccccc2-c2nnn[nH]2)cc1NC(=O)Nc1ccc2sccc2c1 | 8.61

Consider the compound "COc1ccc(C(=O)O)c(-c2ccc(N(CC(C)C)CC(C)C)c(NC(=O)Nc3ccc(C)cc3)c2)c1" and give its measured pIC50.
6.41

Can you check "Cc1ccc(NC(=O)Nc2cc(-c3ccccc3-c3nnn[nH]3)ccc2N(CC(C)C)CC(F)(F)F)cc1" next?
7.30

Can you check "[2H]C([2H])(C(C)C)N(c1ccc(-c2ccccc2-c2nnn[nH]2)cc1NC(=O)Nc1ccc(C)cc1)C1CCCCC1" next?
8.32

Can you check O=C(Nc1ccc(F)nc1)Nc1cc(-c2ccccc2-c2nnn[nH]2)ccc1N1CCC(c2ccccc2)C1 (racemic) next?
5.43

Can you check "Cc1ccc(NC(=O)Nc2cc(-c3cc(F)ccc3C(=O)O)ccc2N(C)C2CCC(F)(F)CC2)cc1" next?
6.72

Can you check "O=C(Nc1ccc(C2CC2)c(F)c1)Nc1cc(-c2ccccc2-c2nnn[nH]2)ccc1N(CCCC(F)(F)F)Cc1ccc(Cl)cc1" next?
8.00

Can you check "[2H]C([2H])(C(C)C)N(c1ccc(-c2cc(F)ccc2C(=O)O)cc1NC(=O)Nc1ccc(C)cc1)C1CCCCC1" next?
8.29

Can you check "Cc1ccc(NC(=O)Nc2cc(-c3ccccc3-c3nnn[nH]3)ccc2N(CCC(F)(F)F)CC2CC2)cc1" next?
6.92

Can you check "CC(C)CN(CC(C)C)c1ccc(-c2ccccc2-c2nnn[nH]2)cc1NC(=O)Nc1ccc(F)c(Cl)c1" next?
6.96

Can you check "Cc1ccc(NC(=O)Nc2cc(-c3cc(F)ccc3C(=O)O)ccc2N(CCC(C)(C)O)Cc2ccc(Cl)cc2)cc1" next?
5.16

Can you check "CC(C)CN(c1cc(F)c(-c2ccccc2C(=O)O)cc1NC(=O)Nc1ccc(F)cc1F)C1CCCCC1" next?
8.67

Can you check "CCN(c1ccc(-c2ccccc2-c2nnn[nH]2)cc1NC(=O)Nc1ccccc1F)C1CCCCC1" next?
8.46

====

targetOrSystem: IDO (Homo sapiens, UniProt P14902)
protocolNotes: Kynurenine assay in Hela cells stimulated with IFN-γ to express IDO
Type: cell-based
Parameters: endogenous in cells; host or cells: HeLa (ATCC CCL-2), stimulated with human recombinant IFN-gamma
assaySetup: 20 h, read-out: Hela Kyurenine (IC50)
valueKind: log10 IC50 (log10 of the value in nM)
Form field - Quantity: IC50; Unit: nM; Scale: log10

Examples with answers:
cpdSmiles | valueKind | measuredValue
Cc1ccc(NC(=O)Nc2cc(-c3ccccc3C(=O)O)c(F)cc2N(C)C2CCCCC2)cc1 | log10 IC50 | 0.82
CN(c1ncc(-c2ccccc2-c2nnn[nH]2)cc1NC(=O)Nc1ccccc1F)C1CCCCC1 | log10 IC50 | 1.00

Request body: readout log10 IC50, system IDO (Homo sapiens, UniProt P14902), query "Cc1ccc(NC(=O)Nc2cc(-c3ccccc3-c3nnn[nH]3)c(F)cc2N(CC(F)F)CC2CC2)cc1" . Return the value.
2.20

Can you check "Cc1ccc(NC(=O)Nc2cc(-c3ccccc3C(=O)O)c(F)cc2N(CC(F)F)CC2CC2)cc1" next?
2.64

Can you check "Cc1ccc(NC(=O)Nc2cc(-c3ccccc3-c3nnn[nH]3)ccc2NC2CCCCC2)cc1" next?
1.95

Can you check "Cc1cccc(NC(=O)Nc2cc(-c3ccccc3-c3nnn[nH]3)ccc2N(C)C2CCCCC2)c1" next?
2.04

Can you check "CCCN(CC1CC1)c1ccc(-c2ccccc2C(=O)O)cc1NC(=O)Nc1ccc(C)cc1" next?
1.78

Can you check "COCCN(CCOC)c1ccc(-c2ccccc2C(=O)O)cc1NC(=O)Nc1ccc(C)cc1" next?
3.49

====

targetOrSystem: Human IDO1 (Homo sapiens)
Sequence (P14902 whole entry): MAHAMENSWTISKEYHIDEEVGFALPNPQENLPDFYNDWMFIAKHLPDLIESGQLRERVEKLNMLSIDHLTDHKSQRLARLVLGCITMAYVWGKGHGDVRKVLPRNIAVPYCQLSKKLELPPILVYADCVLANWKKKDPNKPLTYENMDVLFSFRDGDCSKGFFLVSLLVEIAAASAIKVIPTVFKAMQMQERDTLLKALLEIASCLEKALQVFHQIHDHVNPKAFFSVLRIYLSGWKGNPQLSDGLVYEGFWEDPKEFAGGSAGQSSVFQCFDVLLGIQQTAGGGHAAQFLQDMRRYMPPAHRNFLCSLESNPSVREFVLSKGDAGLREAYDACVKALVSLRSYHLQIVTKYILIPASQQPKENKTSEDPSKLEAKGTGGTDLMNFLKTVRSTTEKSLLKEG
protocolNotes: IDO Kynurenine Assay with Human IDO1/HEK293 Cells
assaySetup: read-out: HEK human IDO-1 (IC50)
pIC50: −log10 of the molar value.
pIC50 below 8 gives n; pIC50 at or above it gives y.

Reference set, count: 3
cpdSmiles | labelClass
Cc1ccc(NC(=O)Nc2cc(-c3cccc(Cl)c3C(=O)O)ccc2N(CC(C)C)CC(C)C)cc1 | n
Cc1ccc(NC(=O)Nc2cc(-c3cccc(C)c3C(=O)O)ccc2N(CC(C)C)CC(C)C)cc1 | n
CCC(CC)N(CC(C)C)c1ccc(-c2ccccc2C(=O)O)cc1NC(=O)Nc1ccc(Cl)cc1F | y

Please examine the following record next.
Please indicate if the recorded pIC50 for "O=C(Nc1ccc(C2CC2)cc1)Nc1cc(-c2ccccc2-c2nnn[nH]2)ccc1N(CCC(F)(F)F)Cc1ccc(F)cc1C(F)(F)F" meets or exceeds 8.
n

====

targetOrSystem: IDO (Homo sapiens)
protocolNotes: LLE_IDO_ABS_DR (IDO assay)
# pIC50 listing for each entry below
Formally, pIC50 is defined as -log10 of the concentration c, with c in mol/L.

Examples with answers:
compound | targetOrSystem | measuredValue
Cc1ccc(NC(=O)Nc2cc(-c3ccccc3-c3nnn[nH]3)ccc2N(CC(C)C)CC2CC2)cc1 | IDO (Homo sapiens) | 7.70
Cc1ccc(NC(=O)Nc2cc(-c3ccccc3-c3nnn[nH]3)ccc2N2CCC(c3ccc(F)cc3)C2)cc1 (centres unmarked) | IDO (Homo sapiens) | 7.40
Cc1ccc(NC(=O)Nc2cc(-c3ccccc3C(=O)O)ccc2N2CCC[C@@H]3CCCC[C@@H]32)cc1 | IDO (Homo sapiens) | 6.80
Cc1ccc(NC(=O)Nc2cc(-c3cc(F)ccc3C(=O)O)ccc2N(C)CC(C)C)cc1 | IDO (Homo sapiens) | 6.57
Cc1ccc(NC(=O)Nc2cc(-c3ccccc3-c3nnn[nH]3)ccc2N2C[C@@H]3C[C@H]2CN3c2ccc(F)cc2)cc1 | IDO (Homo sapiens) | 7.15

Consider the compound "COc1ccc(-c2ccc(N(CC(F)F)CC3CC3)c(NC(=O)Nc3ccc(C)cc3)c2)cc1C(=O)O" and give its measured pIC50.
5.39

Can you check "C#CCOc1cccc(NC(=O)Nc2cc(-c3ccccc3-c3nnn[nH]3)ccc2N(CC(C)C)CC(C)C)c1" next?
8.33

Can you check "Cc1ccc(NC(=O)Nc2cc(-c3ccccc3-c3nnn[nH]3)ccc2N(C)C2CCCC2)cc1" next?
7.22

====

targetOrSystem: IDO (Homo sapiens, UniProt P14902)
protocolNotes: LLE_IDO_ABS_DR (IDO assay)
valueKind: pIC50
Formally, pIC50 is defined as -log10 of the concentration c, with c in mol/L.

compound | pIC50
O=C(Nc1ccc(F)cc1F)Nc1cc(-c2ccccc2-c2nnn[nH]2)ccc1N(CCC(F)(F)F)Cc1ccccn1 [Example 344] | 7.52

Consider the compound CN(c1ccc(-c2ccccc2-c2nnn[nH]2)cc1NC(=O)Nc1ccccc1F)C1CCCCC1 [Example 214] and give its measured pIC50.
8.63

Can you check Cc1ccc(NC(=O)Nc2cc(-c3ccccc3-c3nnn[nH]3)ccc2N(CC(C)C)C(C)C)cc1 [Example 147] next?
8.00

====

targetOrSystem: IDO (Homo sapiens, UniProt P14902)
protocolNotes: LLE_IDO_ABS_DR (IDO assay)
# IC50 listing for each entry below
Answer format: numeric, nM implied, no suffix.

Examples with answers:
cpdSmiles | targetOrSystem | IC50 [nM]
CN(c1ccc(-c2cc(F)ccc2C(=O)O)cc1NC(=O)Nc1ccccc1F)c1ccccc1C(C)(C)C | IDO (Homo sapiens, UniProt P14902) | 3800
CN(c1ccc(-c2ccccc2C(=O)O)cc1NC(=O)Nc1ccccc1Cl)C1CCCCC1 | IDO (Homo sapiens, UniProt P14902) | 1280
O=C(Nc1ccc(F)cc1F)Nc1cc(-c2ccccc2-c2nnn[nH]2)ccc1N(CCC(F)(F)F)Cc1ccc(C(F)(F)F)cc1 | IDO (Homo sapiens, UniProt P14902) | 20

Would you kindly look at the next entry?
Consider the compound "Cc1ccc(NC(=O)Nc2cc(-c3cc(F)ccc3C(=O)O)ccc2N2CCCc3ccccc32)cc1" and give its measured IC50.
3340

====

targetOrSystem: UniProt P14902
protocolNotes: LLE_IDO_ABS_DR (IDO assay)
Grouping rule (IC50): lowest (below 10 nM), middle (10 nM to below 400 nM), highest (400 nM or more)

Reference set, count: 3
compound | labelClass
COc1ccc(C(=O)O)c(-c2ccc(N(CC(C)C)CC(C)C)c(NC(=O)Nc3ccc(F)cc3F)c2)c1 | middle
[2H]C([2H])(C(C)C)N(c1ccc(-c2cc(F)ccc2C(=O)O)cc1NC(=O)Nc1ccccc1F)C1CCCCC1 | lowest
Cc1ccc(NC(=O)Nc2cc(-c3cc(F)ccc3C(=O)O)ccc2N(CC(C)C)CC(C)C)cc1 | middle

Which of the defined bands does the recorded IC50 of "CC(C)CN(CC(C)C)c1ccc(-c2ccccc2-c2nnn[nH]2)cc1NC(=O)Nc1cccc2cnccc12" sit within?
highest

Can you check "CNC(=O)c1ccccc1NC(=O)Nc1cc(-c2ccccc2-c2nnn[nH]2)ccc1N(CC(C)C)CC(C)C" next?
highest

Can you check "CC(C)CN(c1ccc(-c2cc(F)ccc2C(=O)O)cc1NC(=O)Nc1ccccc1F)C1CCCCC1" next?
lowest

Can you check "O=C(Nc1ccc(C2CC2)cc1)Nc1cc(-c2ccccc2-c2nnn[nH]2)ccc1N(CCC(F)(F)F)Cc1ccc(F)cc1" next?
middle

Can you check CC1CC(C)CN(c2ccc(-c3ccccc3-c3nnn[nH]3)cc2NC(=O)Nc2ccccc2F)C1 (centres unmarked) next?
highest

Can you check Cc1ccc(NC(=O)Nc2cc(-c3ccccc3C(=O)O)ccc2N(CCC(C)C(F)(F)F)CC(C)C)cc1 (centres unmarked) next?
middle

Taken from patent US9758492B2.
